B1: BTBD10 (parent)
chain: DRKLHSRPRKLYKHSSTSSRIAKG

variants of: B1; experiment: protein stability index of a GFP-peptide fusion (GPS, HEK-293T) (PSI 1-6); higher = more stable; settings: c terminus: a fixed tail appended;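 note: lentivirally expressed fusions sorted by FACS into six bins by GFP to DsRed ratio, PSI derived from sequencing read proportions per bin multiplied by bin number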
# cutoff 4 applies to protein stability index; >= gives Condition met, < gives Condition not met

Solved cases (3 shown):
Has DRKLHSRPRKLYKHSSTLSRIAKG [S18L] a recorded protein stability index greater than or equal to 4? Condition met

Check the entry DVKLHSRPRKLYKHSSTSSRIAKG [R2V] : does protein stability index equal or exceed 4? Condition not met

Reported protein stability index at or above 4? DRKLHSRPRKLYKHSSYSSRIAKG [T17Y] Condition not met

More entries:
Dear colleague, could you confirm whether DRKLHSRPRKLYKHSSTSNRIAKG [S19N] has protein stability index at or above 4? Condition not met

Check this variant for protein stability index at or above 4: DRKLISRPRKLYKHSSTSSRIAKG [H5I] Condition not met

Confirm if protein stability index reported for the variant DRKLHSRPRKLYKHSSASSRIAKG [T17A] is 4 or above. Condition not met

Is the recorded value of protein stability index equal to or greater than 4 for this variant? DRKLHSRPRKLYKWSSTSSRIAKG [H14W] Condition not met

Is the recorded value of protein stability index equal to or greater than 4 for this variant? DRKLHSRPRKLYKHRSTSSRIAKG [S15R] Condition met
